Parameter IC50, tested on PI3K β (Homo sapiens, UniProt P42338), listed per item.
Sequence (P42338 whole entry): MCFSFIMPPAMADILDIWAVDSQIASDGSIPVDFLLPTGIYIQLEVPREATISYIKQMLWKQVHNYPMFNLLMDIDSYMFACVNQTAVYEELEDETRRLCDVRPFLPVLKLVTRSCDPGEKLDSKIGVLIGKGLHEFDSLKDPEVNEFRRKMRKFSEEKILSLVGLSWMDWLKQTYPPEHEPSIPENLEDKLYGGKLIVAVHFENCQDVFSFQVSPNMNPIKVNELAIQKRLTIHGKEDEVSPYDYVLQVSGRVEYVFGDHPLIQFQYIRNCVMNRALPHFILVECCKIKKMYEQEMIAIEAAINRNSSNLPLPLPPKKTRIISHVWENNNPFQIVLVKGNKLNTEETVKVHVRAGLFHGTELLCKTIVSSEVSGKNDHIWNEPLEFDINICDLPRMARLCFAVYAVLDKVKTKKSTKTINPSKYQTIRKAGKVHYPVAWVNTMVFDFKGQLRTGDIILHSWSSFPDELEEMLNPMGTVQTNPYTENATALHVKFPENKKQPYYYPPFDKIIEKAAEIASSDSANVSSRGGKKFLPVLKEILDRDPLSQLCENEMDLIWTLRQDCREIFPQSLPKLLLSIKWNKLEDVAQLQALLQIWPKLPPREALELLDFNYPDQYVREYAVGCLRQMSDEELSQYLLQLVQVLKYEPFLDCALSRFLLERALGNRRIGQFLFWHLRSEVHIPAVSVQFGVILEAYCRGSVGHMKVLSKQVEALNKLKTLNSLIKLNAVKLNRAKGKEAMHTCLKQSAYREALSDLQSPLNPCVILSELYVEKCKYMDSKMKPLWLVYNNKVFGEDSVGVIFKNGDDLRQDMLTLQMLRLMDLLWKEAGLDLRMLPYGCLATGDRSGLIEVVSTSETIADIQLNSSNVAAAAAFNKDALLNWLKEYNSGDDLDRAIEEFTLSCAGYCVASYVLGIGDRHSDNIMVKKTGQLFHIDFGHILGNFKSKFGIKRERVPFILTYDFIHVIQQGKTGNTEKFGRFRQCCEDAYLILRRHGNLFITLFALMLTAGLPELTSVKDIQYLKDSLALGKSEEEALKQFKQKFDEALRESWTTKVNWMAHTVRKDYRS

Solved cases below.
> print(dat)
                                   compound                                    tgt  measured.endpoint   result
1  Cc1cccc2cc(Cn3nc(-c4cccc(Cl)c4)c4c(N)ncnc43)n(-c3ccccc3F)c(=O)c12  PI3K β (Homo sapiens, UniProt P42338)               IC50  > 10 µM
2  Cc1cccc2cc(Cn3nc(C(F)F)c4c(N)ncnc43)n(-c3ccccc3)c(=O)c12  PI3K β (Homo sapiens, UniProt P42338)               IC50  < 10 µM
3  C=Cc1nn(Cc2cc3cccc(C)c3c(=O)n2-c2ccccc2F)c2ncnc(N)c12  PI3K β (Homo sapiens, UniProt P42338)               IC50  > 10 µM
4  CCC(Nc1ncnc2[nH]cnc12)c1cc2ccccc2c(=O)n1-c1ccccc1 (stereo not drawn)  PI3K β (Homo sapiens, UniProt P42338)               IC50  > 10 µM
5  Cc1cccc2cc(Cn3nc(-c4ccc(Cl)c(O)c4)c4c(N)ncnc43)n(C3CCCC3)c(=O)c12  PI3K β (Homo sapiens, UniProt P42338)               IC50  < 10 µM

Any idea what IC50 was measured for Cc1cccc2cc(Cn3nc(Br)c4c(N)ncnc43)n(-c3ccccc3F)c(=O)c12 ?
> 10 µM

Any idea what IC50 was measured for CCn1c(Cn2nc(-c3ccc4nc(NC(C)=O)sc4c3)c3c(N)ncnc32)cc2cccc(C)c2c1=O ?
< 1 µM

Any idea what IC50 was measured for Cc1cccc2cc([C@H](C)Nc3nc(N)ncc3Cl)n(C3CC3)c(=O)c12 ?
< 1 µM

Any idea what IC50 was measured for Cc1cccc2cc(Cn3nc(-c4cccc(O)c4)c4c(N)ncnc43)n(C3CCCC3)c(=O)c12 ?
< 10 µM

Any idea what IC50 was measured for Cc1cccc2cc([C@H](C)Nc3ncnc4[nH]c(Cl)nc34)n(-c3ccccc3)c(=O)c12 ?
> 10 µM

Any idea what IC50 was measured for CC(=O)Nc1nc2ccc(-c3nn(Cc4cc5cccc(F)c5c(=O)n4C(C)C)c4ncnc(N)c34)cc2s1 ?
< 10 µM

Any idea what IC50 was measured for Cc1cccc2cc([C@H](C)Nc3ncnc4[nH]cnc34)n(-c3cccc(F)c3)c(=O)c12 ?
< 1 µM

====

Parameter IC50, tested on PI3K γ (Homo sapiens, UniProt P48736), listed per item.
Sequence (P48736 whole entry): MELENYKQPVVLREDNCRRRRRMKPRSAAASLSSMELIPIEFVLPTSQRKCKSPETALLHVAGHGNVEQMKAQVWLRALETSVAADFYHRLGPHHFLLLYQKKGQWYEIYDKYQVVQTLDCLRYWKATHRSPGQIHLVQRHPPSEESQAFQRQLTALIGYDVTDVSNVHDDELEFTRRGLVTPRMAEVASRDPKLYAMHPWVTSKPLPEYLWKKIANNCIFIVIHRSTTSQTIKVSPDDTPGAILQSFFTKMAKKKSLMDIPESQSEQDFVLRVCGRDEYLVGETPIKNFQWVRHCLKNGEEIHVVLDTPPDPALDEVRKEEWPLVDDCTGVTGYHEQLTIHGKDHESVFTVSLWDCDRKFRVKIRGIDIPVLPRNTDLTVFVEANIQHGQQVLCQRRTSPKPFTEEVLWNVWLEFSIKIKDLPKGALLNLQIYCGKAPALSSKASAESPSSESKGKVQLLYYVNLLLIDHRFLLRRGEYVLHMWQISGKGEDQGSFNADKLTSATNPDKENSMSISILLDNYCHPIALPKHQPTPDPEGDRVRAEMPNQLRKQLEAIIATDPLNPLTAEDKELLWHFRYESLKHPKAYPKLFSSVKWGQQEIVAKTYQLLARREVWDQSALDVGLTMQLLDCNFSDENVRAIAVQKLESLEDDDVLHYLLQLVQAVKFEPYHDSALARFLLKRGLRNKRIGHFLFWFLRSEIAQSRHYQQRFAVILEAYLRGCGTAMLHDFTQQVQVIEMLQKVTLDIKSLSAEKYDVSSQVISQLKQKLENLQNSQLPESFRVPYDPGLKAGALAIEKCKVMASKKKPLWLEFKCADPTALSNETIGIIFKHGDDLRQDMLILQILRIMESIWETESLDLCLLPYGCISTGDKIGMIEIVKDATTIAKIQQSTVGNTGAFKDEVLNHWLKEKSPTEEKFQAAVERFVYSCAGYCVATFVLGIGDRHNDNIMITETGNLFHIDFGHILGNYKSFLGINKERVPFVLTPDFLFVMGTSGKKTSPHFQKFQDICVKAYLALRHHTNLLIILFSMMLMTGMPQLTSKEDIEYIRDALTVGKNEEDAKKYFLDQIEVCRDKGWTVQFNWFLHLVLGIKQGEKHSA

> print(dat)
                                   compound  measured.endpoint     result
1  Cc1cccc2cc(Cn3nc(-c4cccc(O)c4)c4c(N)ncnc43)n(-c3ccccc3C(C)C)c(=O)c12               IC50   < 100 nM
2  Cc1ccccc1-n1c(Cn2nc(-c3cnc4[nH]ccc4c3)c3c(N)ncnc32)cc2cccc(C)c2c1=O               IC50   < 100 nM
3  Cc1cccc2cc(Cn3nc(-c4cn[nH]c4)c4c(N)ncnc43)n(-c3ccccc3Cl)c(=O)c12               IC50  < 1000 nM

Now consider a different compound.
Any idea what IC50 was measured for CCC(Nc1ncnc2[nH]cnc12)c1cc2cccc(C)c2c(=O)n1C(C)C (stereo not shown) ?
< 10000 nM

====

Parameter pIC50, tested on PI3K α (Homo sapiens, UniProt P42336), listed per item.
Sequence (P42336 whole entry): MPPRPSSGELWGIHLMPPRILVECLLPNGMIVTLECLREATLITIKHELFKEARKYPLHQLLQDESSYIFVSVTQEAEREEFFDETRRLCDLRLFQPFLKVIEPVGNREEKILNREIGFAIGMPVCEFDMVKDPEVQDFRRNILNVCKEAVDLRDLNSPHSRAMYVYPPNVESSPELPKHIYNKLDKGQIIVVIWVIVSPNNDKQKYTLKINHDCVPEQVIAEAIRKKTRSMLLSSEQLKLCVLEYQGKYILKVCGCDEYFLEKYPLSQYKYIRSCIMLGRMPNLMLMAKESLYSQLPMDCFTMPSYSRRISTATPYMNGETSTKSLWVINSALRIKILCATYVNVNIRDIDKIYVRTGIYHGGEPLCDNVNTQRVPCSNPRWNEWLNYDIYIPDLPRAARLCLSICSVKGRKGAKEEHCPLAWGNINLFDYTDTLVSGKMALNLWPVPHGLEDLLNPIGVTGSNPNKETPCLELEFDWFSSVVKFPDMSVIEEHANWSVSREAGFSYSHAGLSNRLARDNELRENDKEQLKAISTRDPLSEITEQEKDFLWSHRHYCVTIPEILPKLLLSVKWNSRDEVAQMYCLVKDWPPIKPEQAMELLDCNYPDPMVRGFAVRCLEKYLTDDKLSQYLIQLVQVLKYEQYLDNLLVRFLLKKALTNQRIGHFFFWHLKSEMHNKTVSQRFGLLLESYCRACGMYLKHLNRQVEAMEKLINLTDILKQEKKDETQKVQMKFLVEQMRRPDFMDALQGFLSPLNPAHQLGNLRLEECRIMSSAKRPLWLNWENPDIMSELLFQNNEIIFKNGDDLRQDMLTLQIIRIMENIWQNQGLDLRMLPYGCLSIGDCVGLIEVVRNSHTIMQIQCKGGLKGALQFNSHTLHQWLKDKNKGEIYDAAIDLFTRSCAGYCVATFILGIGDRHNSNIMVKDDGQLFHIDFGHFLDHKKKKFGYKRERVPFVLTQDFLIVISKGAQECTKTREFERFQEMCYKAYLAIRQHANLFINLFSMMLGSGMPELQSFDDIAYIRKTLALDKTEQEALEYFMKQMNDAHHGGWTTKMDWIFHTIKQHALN
Sequence (P27986 whole entry partner): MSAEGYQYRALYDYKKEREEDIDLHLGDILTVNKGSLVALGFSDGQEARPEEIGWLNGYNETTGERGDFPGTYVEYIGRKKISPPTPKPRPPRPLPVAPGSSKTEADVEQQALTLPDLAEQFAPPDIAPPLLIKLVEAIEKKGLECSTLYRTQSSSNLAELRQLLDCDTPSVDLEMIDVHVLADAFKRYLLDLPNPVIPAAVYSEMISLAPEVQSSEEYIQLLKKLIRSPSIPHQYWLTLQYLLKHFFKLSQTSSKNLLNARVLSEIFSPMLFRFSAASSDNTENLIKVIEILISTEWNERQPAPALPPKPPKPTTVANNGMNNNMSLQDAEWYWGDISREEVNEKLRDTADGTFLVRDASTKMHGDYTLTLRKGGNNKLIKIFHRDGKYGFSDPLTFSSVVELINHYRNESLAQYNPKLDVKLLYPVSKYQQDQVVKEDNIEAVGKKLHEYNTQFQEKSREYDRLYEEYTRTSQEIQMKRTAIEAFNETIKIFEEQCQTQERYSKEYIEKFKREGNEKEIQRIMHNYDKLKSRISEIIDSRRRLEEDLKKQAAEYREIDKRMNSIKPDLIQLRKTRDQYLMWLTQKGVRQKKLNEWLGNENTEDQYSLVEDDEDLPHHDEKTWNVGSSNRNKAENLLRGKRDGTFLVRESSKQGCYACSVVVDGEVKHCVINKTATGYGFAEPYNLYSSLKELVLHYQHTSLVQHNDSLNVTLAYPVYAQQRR
pIC50: −log10 of the molar value.

Solved cases below.
> print(dat)
                                   compound  result
1  Cc1ccccc1-n1c(Cn2nc(C(=O)NO)c3c(N)ncnc32)cc2cccc(C)c2c1=O [Compound 300]  < 5.00
2  Cc1cccc2cc([C@H](C)Nc3nc(Cl)ncc3Cl)n(-c3ccccc3)c(=O)c12 [Compound 248]  < 5.00
3  Cc1cccc2cc(Cn3nc(-c4cc(O)cc(F)c4)c4c(N)ncnc43)n(-c3ccccc3C(C)C)c(=O)c12 [Compound 95]  > 6.00
4  Cc1cccc2cc(Cn3nc(Br)c4c(N)ncnc43)n(-c3ccccc3F)c(=O)c12 [Compound 35]  < 5.00
5  Cc1cccc2cc(C(C)Nc3nc(O)ncc3N)n(-c3ccccc3)c(=O)c12 (centres unmarked) [Compound 321]  < 5.00

Kindly state the measured pIC50 obtained for Cc1ccccc1-n1c(Cn2nc(-c3ccc4nc(N)sc4c3)c3c(N)ncnc32)cc2cccc(C)c2c1=O [Compound 145] with PI3K α (Homo sapiens, UniProt P42336).
> 6.00

Kindly state the measured pIC50 obtained for Cc1cccc2cc(Cn3nc(-c4cccc(O)c4)c4c(N)ncnc43)n(C3CC3)c(=O)c12 [Compound 102] with PI3K α (Homo sapiens, UniProt P42336).
> 6.00

Kindly state the measured pIC50 obtained for Cc1cccc2cc([C@H](C)Nc3nc(N)ncc3C(F)(F)F)n(-c3ccccc3)c(=O)c12 [Compound 324] with PI3K α (Homo sapiens, UniProt P42336).
< 5.00

====

Parameter IC50, tested on PI3K δ (Homo sapiens, UniProt O00329), listed per item.
Sequence (O00329 whole entry): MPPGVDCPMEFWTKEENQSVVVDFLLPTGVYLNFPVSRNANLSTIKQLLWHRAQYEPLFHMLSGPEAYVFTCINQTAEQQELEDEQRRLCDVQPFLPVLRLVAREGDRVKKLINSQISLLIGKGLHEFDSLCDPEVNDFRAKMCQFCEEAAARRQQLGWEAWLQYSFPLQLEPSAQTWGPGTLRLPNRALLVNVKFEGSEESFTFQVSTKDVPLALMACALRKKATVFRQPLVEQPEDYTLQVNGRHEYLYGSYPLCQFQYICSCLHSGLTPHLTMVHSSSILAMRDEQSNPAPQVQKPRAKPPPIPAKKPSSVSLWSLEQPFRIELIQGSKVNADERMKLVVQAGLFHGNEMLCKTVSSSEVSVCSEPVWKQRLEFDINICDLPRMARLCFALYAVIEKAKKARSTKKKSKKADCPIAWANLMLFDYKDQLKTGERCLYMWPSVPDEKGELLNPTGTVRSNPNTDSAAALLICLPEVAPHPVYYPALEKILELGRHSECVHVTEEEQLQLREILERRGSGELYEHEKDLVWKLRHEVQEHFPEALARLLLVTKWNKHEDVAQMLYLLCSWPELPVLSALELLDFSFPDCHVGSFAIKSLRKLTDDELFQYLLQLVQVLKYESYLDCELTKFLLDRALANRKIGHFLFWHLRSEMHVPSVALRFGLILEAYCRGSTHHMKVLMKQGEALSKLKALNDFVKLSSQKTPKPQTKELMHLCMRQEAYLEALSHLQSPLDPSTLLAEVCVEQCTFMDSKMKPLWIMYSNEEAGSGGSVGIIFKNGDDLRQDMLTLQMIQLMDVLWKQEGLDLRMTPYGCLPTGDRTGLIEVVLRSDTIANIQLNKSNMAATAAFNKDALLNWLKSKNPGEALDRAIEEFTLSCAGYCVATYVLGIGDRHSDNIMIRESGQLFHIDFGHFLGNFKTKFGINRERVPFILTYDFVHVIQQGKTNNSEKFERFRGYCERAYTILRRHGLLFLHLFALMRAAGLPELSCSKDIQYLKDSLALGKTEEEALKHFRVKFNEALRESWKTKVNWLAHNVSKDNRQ
Sequence (P27986 whole entry partner): as the sequence (P27986 whole entry partner) above

Solved cases below.
> print(dat)
                            compound.smiles  measured.endpoint      result
1  Cc1ccccc1-n1c(Cn2nc(CN3CCOCC3)c3c(N)ncnc32)cc2cccc(C)c2c1=O               IC50  < 10000 nM
2  Cc1cccc2cc(Cn3nc(-c4cccc(O)c4)c4c(N)ncnc43)n(-c3ccccc3Cl)c(=O)c12               IC50    < 100 nM
3  Cc1cccc2cc(Cn3nc(I)c4c(N)ncnc43)n(-c3ccccc3Cl)c(=O)c12               IC50    < 100 nM

Kindly state the measured IC50 obtained for Cc1cccc2cc(Cn3nc(C#C[C@@H](C)O)c4c(N)ncnc43)n(C(C)C)c(=O)c12 with PI3K δ (Homo sapiens, UniProt O00329).
< 100 nM

====

pIC50: −log10 of the molar value.
Parameter pIC50, tested on PI3K γ (Homo sapiens, UniProt P48736), listed per item.

Solved cases below.
> print(dat)
                                   compound                                    tgt  result
1  CCC(Nc1ncnc2[nH]cnc12)c1cc2ccccc2c(=O)n1-c1ccccc1 (stereo not shown) [Compound 221]  PI3K γ (Homo sapiens, UniProt P48736)  > 5.00
2  COc1ccccc1-n1c(Cn2nc(-c3cc(O)cc(F)c3)c3c(N)ncnc32)cc2cccc(C)c2c1=O [Compound 84]  PI3K γ (Homo sapiens, UniProt P48736)  > 7.00
3  Cc1cccc2cc(Cn3nc(-c4cccc(O)c4)c4c(N)ncnc43)n(C3CC3)c(=O)c12 [Compound 102]  PI3K γ (Homo sapiens, UniProt P48736)  > 7.00
4  Cc1cccc2cc(Cn3nc(-c4ccn[nH]4)c4c(N)ncnc43)n(-c3ccccc3F)c(=O)c12 [Compound 183]  PI3K γ (Homo sapiens, UniProt P48736)  > 5.00
5  Cc1cccc2cc(C(C)Nc3ncnc4[nH]cnc34)n(C3CCCC3)c(=O)c12 (stereo not shown) [Compound 231]  PI3K γ (Homo sapiens, UniProt P48736)  > 7.00
6  Cc1cccc2cc([C@H](C)Nc3ncnc4[nH]c(O)nc34)n(-c3ccccc3)c(=O)c12 [Compound 263]  PI3K γ (Homo sapiens, UniProt P48736)  < 5.00
7  CNC(=O)c1nn(Cc2cc3cccc(C)c3c(=O)n2-c2ccccc2C)c2ncnc(N)c12 [Compound 305]  PI3K γ (Homo sapiens, UniProt P48736)  > 5.00
8  Cc1cccc2cc([C@H](C)Nc3cc(N)nc(N)n3)n(C3CC3)c(=O)c12 [Compound 284]  PI3K γ (Homo sapiens, UniProt P48736)  > 5.00
9  Cc1cccc2cc(C(C)Nc3ncnc4[nH]cnc34)n(-c3ccccc3F)c(=O)c12 (stereo not shown) [Compound 167]  PI3K γ (Homo sapiens, UniProt P48736)  > 7.00

Now consider a different compound.
Any idea what pIC50 was measured for Cc1ccccc1-n1c(Cn2nc(-c3cc(O)cc(F)c3)c3c(N)ncnc32)cc2ccccc2c1=O [Compound 33] ?
> 7.00
